The measured values listed here are drawn from patent US20240182575A1.

# targetSystem: T1, HuCTLA4-HuIgG1 (fusion protein of the extracellular part of human CD152 and human Fc gamma 1, CTLA4-Ig) (human, UniProt P16410 36-161)
# T1 construct: extracellular domain; also called CTLA4-hFc; CTLA4-Fc; not shown: human Fc gamma 1
# T1 sequence (P16410 36-161 limits assumed): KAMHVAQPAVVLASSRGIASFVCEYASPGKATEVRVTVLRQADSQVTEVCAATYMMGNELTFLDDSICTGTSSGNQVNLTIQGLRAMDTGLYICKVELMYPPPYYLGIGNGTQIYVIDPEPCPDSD
# protocolDescription: SPR, Biacore T100, CTLA4-Ig amine-coupled

- binder: "4CTLAPMP02F4 (VHH, short label tied to the entry by the clone code only; not shown: C-terminal c-myc tag and His6 tag) VHH: EVQLVESGGGLVQTGGSLRLSCAASGRTFSNYTMGWFRQAPGKDREFVAAISRSGALKAYADSVKGRFTPSRDNAKKMAYLQMNSLKPEDTAVYYCAAAPVPWGTRPSFFPYDSWGQGTQVTVSS"
  Kd [nM]: 0.466
- binder: "4CTLAPMP12H2 (VHH, short label tied to the entry by the clone code only; not shown: C-terminal c-myc tag and His6 tag) VHH: EVQLVESGGGLVEPGGSLRLSCAASGSISSYNVMGWYRQAPGQQRDLVAHIASNGEIMYADSAKGRFTISRDNAKKTVYLQMNSLKPEDTAVYYCKLWVLGNDYWGQRTQVTVSS"
  Kd [nM]: 7.52
- binder: "4CTLAPMP02G2 (VHH, short label tied to the entry by the clone code only; not shown: C-terminal c-myc tag and His6 tag) VHH: EVQLVESRGGLVQTGGSLRLSCAASGRTFSNYTMGWFRQAPGKDREFVAAISRSGSLKSYADSVKGRFTISRDNAKKMAYLQMNSLKPEDTAVYYCAAAPVPWGTRPSFFTYDSWGQGTQVTVSS"
  Kd [nM]: 0.478
- binder: "4CTLAPMP11F1 (VHH, short label tied to the entry by the clone code only; also called 11F1 WT; not shown: C-terminal c-myc tag and His6 tag) VHH: EVQLVESGGGLVQAGGSLRLSCAASGGTFSFYGMGWFRQAPGKEQEFVADIRTSAGRTYYADSVKGRFTISRDNAKNTVYLQMNSLKPEDTAVYYCAAEMSGISGWDYWGQGTQVTVSS"
  Kd [nM]: 10
- binder: "4CTLAPMP11E3 (VHH, also called 11E3 WT; not shown: C-terminal c-myc tag and His6 tag) VHH: EVQLVESGGGLVEPGGSLRLSCAASGSISSYNVMGWYRQAPGQQRDLVAHIASNGEIMYADSAKGRFTISRDNAKKTVYLQMNSLKPEDTAVYYCKLWVLGNDYWGQGTQVTVSS"
  Kd [nM]: 10
- binder: "4CTLAPMP2G9 (VHH, short label tied to the entry by the clone code only; not shown: C-terminal c-myc tag and His6 tag) VHH: EVQLVKSGGQLVQAGGSLRLSCAATGRTYNSYPLGWFRQAPGKEREFVAAISASGTLRAYADSVKGRFTISRDSAKNTVYLQMNNLKPEDTAVYYCARARSVGWRASHHLSDYDNWGQGTQVTVSS"
  Kd [nM]: 1.69
- binder: "4CTLAPMP02F2 (VHH, short label tied to the entry by the clone code only; not shown: C-terminal c-myc tag and His6 tag) VHH: EVQLMESGGGLVQTGGSLRLSCAASGRTFSNYTMGWFRQAPGKDREFVAAISRSGSLKAYADSVKGRFTPSRDNAKKMAYLQMNSLKPEDTAVYYCAAAPVPWGTRPSLFPYDSWGQGTQVTVSS"
  Kd [nM]: 0.638
